# Tested on: Poly(dA-dT)oligonucleotide
# Experiment description: Binding affinity to minor groove of poly(dA:dT) dsDNA (unknown origin) assessed as change in melting temperature by UV-vis spectrophotometry based DNA melting assay
# Assay type: nucleic-acid assay
Decision: ΔTm >= 20 °C yields yes (1), all other cases yield no (0).

smiles_str=CC(=O)Nc1cc(CO[Si](C)(C)C(C)(C)C)cc(NC(=O)c2ccc(C(=O)Nc3cccc(NC(=O)CCCN(C)C)c3)cc2)c1 class="yes (1)"
smiles_str=CC(=O)Nc1cc(CCl)cc(NC(=O)c2ccc(C(=O)NCCCN(C)C)cc2)c1 class="yes (1)"
smiles_str=CC(=O)Nc1cc(CO)cc(NC(=O)c2ccc(C(=O)Nc3cccc(NC(=O)CCCN(C)C)c3)cc2)c1 class="yes (1)"
smiles_str=CC(=O)Nc1cc(CCl)cc(NC(=O)c2ccc(C(=O)Nc3cccc(NC(=O)CCCN(C)C)c3)cc2)c1 class="yes (1)"
smiles_str=CCN(CC)CC(=O)Nc1cccc(C(=O)Nc2cc(CO)cc(NC(C)=O)c2)c1 class="no (0)"
smiles_str=CCN(CC)CC(=O)Nc1ccc(C(=O)Nc2cc(CO)cc(NC(C)=O)c2)cc1 class="no (0)"

Source listed as ChEMBL document CHEMBL4715697.
